Sourced from the supplement of paper PMC7877785

Measurement Description: self-splicing fitness, log relative to wild type (ln ratio); higher = more splicing; Tetrahymena group I intron in knt gene, E. coli kanamycin selection, DiMSum; sequences stand for … in CUCUCU…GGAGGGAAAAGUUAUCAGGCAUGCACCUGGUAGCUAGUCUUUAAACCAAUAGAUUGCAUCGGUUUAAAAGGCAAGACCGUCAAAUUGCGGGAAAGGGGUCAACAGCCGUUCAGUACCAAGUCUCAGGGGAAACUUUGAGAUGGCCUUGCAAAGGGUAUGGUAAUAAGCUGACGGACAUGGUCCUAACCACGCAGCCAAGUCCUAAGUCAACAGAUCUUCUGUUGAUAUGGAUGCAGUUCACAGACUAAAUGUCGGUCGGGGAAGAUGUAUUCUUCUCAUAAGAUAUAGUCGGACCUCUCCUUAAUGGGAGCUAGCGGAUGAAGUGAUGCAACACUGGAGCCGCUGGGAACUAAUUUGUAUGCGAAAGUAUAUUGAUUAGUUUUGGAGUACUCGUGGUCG;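 note: selection with 25 µg/mL kanamycin versus none on LB agar overnight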
Details: 37 °C
Quick reference: self-splicing fitness (ln) of the listed items.

Below, each entry is followed by its recorded self-splicing fitness (ln) result.
Exam item: Name the recorded self-splicing fitness (ln) for `CGUUAGCAAUAUUACGCCGC` .
Marked response: -2.73

Exam item: Reported self-splicing fitness (ln) for `GAUAAGCAAUAUUACGAUGC` : what is it?
Marked response: -0.45

Next:
Exam item: Item `GGACAGCAAUAUUACGCACA` has what recorded self-splicing fitness (ln)?
Marked response: 0.0888

Exam item: # self-splicing fitness (ln) lookup, item `UAGUAGCAAUAUUACGUUGG`
Marked response: -2.69

Exam item: Give its self-splicing fitness (ln) value. Item: `CGGAAGCAAUAUUACGAUGU`
Marked response: -0.735

Exam item: self-splicing fitness (ln) for `GAGCAGCAAUAUUACGUCUU` ?
Marked response: -1.23

Exam item: # query: self-splicing fitness (ln) of entry `GUCUAGCAAUAUUACGGCAG`
Marked response: -1.72

Exam item: Please give the measured self-splicing fitness (ln) for this sequence: `GGCCAGCAAUAUUACGCCAC`
Marked response: -1.8

Exam item: Would you mind telling me what self-splicing fitness (ln) value was observed for `GACAAGCAAUAUUACGCCUU` ?
Marked response: -1.04

Exam item: Query: self-splicing fitness (ln); subject: `UGGCAGCAAUAUUACGGUAU`
Marked response: -1.73

Exam item: Can you look up the measured self-splicing fitness (ln) of `CAGGAGCAAUAUUACGCGUG` for me?
Marked response: -2.42

Exam item: For the sequence shown here, `UUACAGCAAUAUUACGAGAG` , give the reported self-splicing fitness (ln).
Marked response: -2.4

Exam item: What measured self-splicing fitness (ln) goes with `GACAAGCAAUAUUACGCGUG` ?
Marked response: -0.344

Exam item: Recorded self-splicing fitness (ln) for `UACUAGCAAUAUUACGACAC` , please?
Marked response: -0.604

Exam item: Need self-splicing fitness (ln), item `GCGAAGCAAUAUUACGAAUG`
Marked response: -0.756

Exam item: Using the record for `CUUCAGCAAUAUUACGUGUU` , report its self-splicing fitness (ln).
Marked response: -2.72

---

Measurement Description: self-splicing fitness, log relative to wild type (ln ratio); higher = more splicing; Tetrahymena group I intron in knt gene, E. coli kanamycin selection, DiMSum; sequences stand for … in CUCUCU…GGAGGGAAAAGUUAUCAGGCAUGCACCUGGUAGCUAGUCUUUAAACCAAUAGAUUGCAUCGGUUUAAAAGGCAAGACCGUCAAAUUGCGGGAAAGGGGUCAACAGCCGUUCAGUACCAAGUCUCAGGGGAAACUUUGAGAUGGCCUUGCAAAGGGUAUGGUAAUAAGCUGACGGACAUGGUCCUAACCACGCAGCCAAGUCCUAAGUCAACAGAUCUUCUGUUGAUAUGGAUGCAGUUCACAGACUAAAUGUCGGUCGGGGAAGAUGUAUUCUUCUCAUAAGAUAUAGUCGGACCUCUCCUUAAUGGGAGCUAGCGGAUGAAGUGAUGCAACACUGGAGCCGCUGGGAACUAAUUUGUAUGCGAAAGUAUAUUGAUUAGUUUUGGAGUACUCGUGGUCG
Details: 37 °C
Returns Y if the recorded self-splicing fitness (ln) is greater than or equal to -1, and N otherwise.

Please review the entries below; each comes with its answer.
Exam item: Form field: self-splicing fitness (ln) at least -1? Entry: `UCUAAGCAAUAUUACGAUCC`
Marked response: N

Exam item: Please indicate if the recorded self-splicing fitness (ln) for `GUUCAGCAAUAUUACGAGAU` meets or exceeds -1.
Marked response: Y

Exam item: Given `CUAUAGCAAUAUUACGGCAG` , state whether its self-splicing fitness (ln) is at least -1.
Marked response: Y

Exam item: Dear colleague, could you confirm whether `CGUAAGCAAUAUUACGCGUU` has self-splicing fitness (ln) at or above -1?
Marked response: N

Exam item: Tell me whether self-splicing fitness (ln) is at least -1 here: `AGCCAGCAAUAUUACGGCCG`
Marked response: Y

Continuing:
Exam item: hey, is self-splicing fitness (ln) for this one >= -1? `CCGUAGCAAUAUUACGGUUG`
Marked response: N

Exam item: Entry `UAACAGCAAUAUUACGGAGC` : is its self-splicing fitness (ln) no less than -1?
Marked response: N

Exam item: Threshold query (self-splicing fitness (ln) >= -1) on `CCAAAGCAAUAUUACGGUGA`
Marked response: N

Exam item: Has `CCUAAGCAAUAUUACGUUGU` a recorded self-splicing fitness (ln) greater than or equal to -1?
Marked response: N

---

Measurement Description: self-splicing fitness, log relative to wild type (ln ratio); higher = more splicing; Tetrahymena group I intron in knt gene, E. coli kanamycin selection, DiMSum; sequences stand for … in CUCUCU…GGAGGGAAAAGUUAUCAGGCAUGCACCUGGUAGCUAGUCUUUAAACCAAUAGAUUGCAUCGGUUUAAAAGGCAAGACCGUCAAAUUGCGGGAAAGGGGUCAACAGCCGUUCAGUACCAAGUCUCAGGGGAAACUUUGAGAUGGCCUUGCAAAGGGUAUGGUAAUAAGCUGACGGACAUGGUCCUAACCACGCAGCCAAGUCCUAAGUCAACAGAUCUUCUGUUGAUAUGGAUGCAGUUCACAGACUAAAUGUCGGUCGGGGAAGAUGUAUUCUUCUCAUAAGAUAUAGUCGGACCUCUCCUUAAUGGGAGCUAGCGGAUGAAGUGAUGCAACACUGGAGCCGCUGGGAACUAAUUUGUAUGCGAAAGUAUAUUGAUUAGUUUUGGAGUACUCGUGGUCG
Details: 37 °C
Cut-off -2 on self-splicing fitness (ln), inclusive. At or above means label 1; below means label 0.

Here are 5 sequences together with their reported answers.
Exam item: Decide: is the reported value of self-splicing fitness (ln) for `CGUUAGCAAUAUUACGGCCA` equal to or greater than -2?
Marked response: label 0

Exam item: Does self-splicing fitness (ln) meet or surpass -2 for `AUCCAGCAAUAUUACGGGCU` ?
Marked response: label 0

Exam item: Check this sequence for self-splicing fitness (ln) at or above -2: `UAGCAGCAAUAUUACGGCUA`
Marked response: label 1

Exam item: Hello, I need to know if `AUAGAGCAAUAUUACGGGUC` has measured self-splicing fitness (ln) not below -2. Thanks!
Marked response: label 0

Exam item: Is it the case that `AGUCAGCAAUAUUACGAAAC` has self-splicing fitness (ln) reaching or exceeding -2?
Marked response: label 1

More entries:
Exam item: Record `AUGUAGCAAUAUUACGUAAC` ; criterion: self-splicing fitness (ln) no lower than -2. Met?
Marked response: label 1

Exam item: # check: self-splicing fitness (ln) of `CACGAGCAAUAUUACGAGGC` is greater than or equal to -2
Marked response: label 1

Exam item: # bool: self-splicing fitness (ln) of `AGAUAGCAAUAUUACGUAGA` >= -2
Marked response: label 1

---

Measurement Description: self-splicing fitness, log relative to wild type (ln ratio); higher = more splicing; Tetrahymena group I intron in knt gene, E. coli kanamycin selection, DiMSum; sequences stand for … in CUCUCU…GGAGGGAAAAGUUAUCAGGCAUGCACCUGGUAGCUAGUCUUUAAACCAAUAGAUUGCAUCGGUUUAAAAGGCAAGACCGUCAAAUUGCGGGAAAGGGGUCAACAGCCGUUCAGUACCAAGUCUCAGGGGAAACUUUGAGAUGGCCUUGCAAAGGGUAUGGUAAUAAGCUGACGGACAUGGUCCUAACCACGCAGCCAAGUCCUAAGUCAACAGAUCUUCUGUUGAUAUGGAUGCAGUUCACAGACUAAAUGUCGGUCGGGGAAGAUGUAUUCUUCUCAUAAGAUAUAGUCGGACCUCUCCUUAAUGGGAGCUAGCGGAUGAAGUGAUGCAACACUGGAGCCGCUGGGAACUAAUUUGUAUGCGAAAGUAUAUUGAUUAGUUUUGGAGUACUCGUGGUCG
Details: 37 °C
Parameter threshold = -2. Response is Fulfilled when self-splicing fitness (ln) meets or exceeds it, else Not fulfilled.

Record excerpt, results attached:
Exam item: For this sequence, is measured self-splicing fitness (ln) -2 or higher? `GAGCAGCAAUAUUACGCAUG`
Marked response: Fulfilled

Exam item: Reported self-splicing fitness (ln) at or above -2? `GCAGAGCAAUAUUACGCCGG`
Marked response: Fulfilled

Exam item: Answer whether self-splicing fitness (ln) of `CAACAGCAAUAUUACGGAGA` is greater than or equal to -2.
Marked response: Fulfilled

Exam item: Is it the case that `GAUGAGCAAUAUUACGGGAG` has self-splicing fitness (ln) reaching or exceeding -2?
Marked response: Fulfilled

---
Exam item: # check: self-splicing fitness (ln) of `CAUGAGCAAUAUUACGUGCC` is greater than or equal to -2
Marked response: Not fulfilled

Exam item: Dear colleague, could you confirm whether `GAACAGCAAUAUUACGAAAC` has self-splicing fitness (ln) at or above -2?
Marked response: Fulfilled

Exam item: For this sequence, is measured self-splicing fitness (ln) -2 or higher? `AAGAAGCAAUAUUACGACCU`
Marked response: Fulfilled

Exam item: Item `CGUGAGCAAUAUUACGCAUC` with self-splicing fitness (ln) of -2 or above?
Marked response: Not fulfilled

Exam item: Quick check: does `CCCGAGCAAUAUUACGAUGA` have self-splicing fitness (ln) greater than or equal to -2?
Marked response: Not fulfilled

Exam item: Threshold query (self-splicing fitness (ln) >= -2) on `UGGCAGCAAUAUUACGCAUA`
Marked response: Fulfilled

Exam item: Decide: self-splicing fitness (ln) of `UAGGAGCAAUAUUACGUCUA` >= -2?
Marked response: Fulfilled

Exam item: # check: self-splicing fitness (ln) of `GAAAAGCAAUAUUACGACCU` is greater than or equal to -2
Marked response: Fulfilled

Exam item: Given the entry `UAAUAGCAAUAUUACGGGCG` , answer whether its self-splicing fitness (ln) meets or surpasses -2.
Marked response: Fulfilled

Exam item: Threshold query (self-splicing fitness (ln) >= -2) on `ACCUAGCAAUAUUACGAGAC`
Marked response: Fulfilled

Exam item: Check if self-splicing fitness (ln) >= -2 (inclusive). Item: `UGCAAGCAAUAUUACGGGAU`
Marked response: Not fulfilled

Exam item: Is self-splicing fitness (ln) at least -2? Consider `GCUCAGCAAUAUUACGUAAG`
Marked response: Fulfilled

Exam item: Does `UGGUAGCAAUAUUACGGCCA` have a reported self-splicing fitness (ln) of at least -2?
Marked response: Fulfilled

Exam item: Assess whether reported self-splicing fitness (ln) for `ACGAAGCAAUAUUACGACUG` sits at -2 or higher.
Marked response: Fulfilled

Exam item: Does the sequence `CGAUAGCAAUAUUACGGCCG` have recorded self-splicing fitness (ln) that is -2 or more?
Marked response: Fulfilled

Exam item: API: above_or_equal(metric=self-splicing fitness (ln), cutoff=-2) for item `AUUGAGCAAUAUUACGCGUC`
Marked response: Fulfilled

Exam item: Is the recorded value of self-splicing fitness (ln) equal to or greater than -2 for this sequence? `UCGAAGCAAUAUUACGGUCA`
Marked response: Fulfilled

Exam item: In plain terms: is recorded self-splicing fitness (ln) at least -2 for `CAGUAGCAAUAUUACGCUGC` ?
Marked response: Fulfilled

Exam item: Evaluate `GAUAAGCAAUAUUACGCCGG` : self-splicing fitness (ln) at minimum -2?
Marked response: Fulfilled

Exam item: Is self-splicing fitness (ln) at least -2? Consider `CAGUAGCAAUAUUACGAACG`
Marked response: Fulfilled
